- EXPERIMENT_DESCRIPTION: folding stability dG unfold from chymotrypsin proteolysis; higher = more stable
Please use 1.0 whenever folding stability dG unfold is not below 2 kcal/mol, and 0.0 whenever it is.

>  <INPUT_SEQUENCE>
SAGGSPGQPYYIMIKLEWENPEDGEEHTFDIMFPVKSAEDAKDYILKELLPPGHKLKIDDISIMPMSAGGSA [r2_320_TrROS]

>  <CAT>
0.0

$$$$
>  <INPUT_SEQUENCE>
SAGGSAGGSAGGAEITIEEKDGKLTLTVRLPDGYVATATFDPNGKWTIKEIKVYKLPEGLSAGGSAGGSAGG [r7_826_TrROS_Hall]

>  <CAT>
1.0

$$$$
>  <INPUT_SEQUENCE>
SAGGLAEYIARYLQENDPRARVEAEEGDVLDGVRVIRVRVERVDDAFGGDIPSSADFILVIPAGAPPTSAGG [r19_8_TrMRF]

>  <CAT>
0.0

$$$$
>  <INPUT_SEQUENCE>
SAGGSAGGSAMITSDDLEKLLKKLGIDPKKLGPEKLAKIFKELYPDAIITADPEGKAYIYPSAGGSAGGSAG [r3_375_TrMRF]

>  <CAT>
0.0

$$$$
>  <INPUT_SEQUENCE>
SAGGVITIRIPGIDNRNPETMRSKAVEIADRLRDHGVTVTDVEWDPDQGSMTITVMLPGQSLEDILKSAGGS [r8_344_TrROS]

>  <CAT>
1.0

$$$$
>  <INPUT_SEQUENCE>
SAGEPDKPFTLTLKLLLPQSEDGTPLTPEEAEELAKEISTELGVEVEEIKITSNPEGNFVEIEVKLRGSAGG [r19_322_TrMRF]

>  <CAT>
1.0

$$$$
>  <INPUT_SEQUENCE>
SAGGSAGGSAVAEEFKKKFPDKTVTVEAFTFERTVTHPDGGSSTERVTVLNVTVSSSDDPGSAGGSAGGSAG [r3_358_TrMRF]

>  <CAT>
1.0

$$$$
>  <INPUT_SEQUENCE>
SAGGSAGGSAKEKYILLKVKPGQKVEIEYENGEKKEVEVLEDGYLLIKVKEKNAKIKIKIKSAGGSAGGSAG [r3_334_TrROS_Hall]

>  <CAT>
1.0

$$$$
